Source of measurements: patent US20190055314A1

- testTarget: T1, CD137-hisFc fusion protein (Sino Biological Cat 10041-H03H) (human, UniProt Q07011 24-186)
- T1 construct: Bought; also called recombinant human CD137 (fused with human Fc and His tag); not shown: His tag and human Fc
- assayOverview: BLI Octet, Fab
Please respond with Y when measured Kd is strictly beneath 20 nM, and with N in all other cases.

binder	assignedLabel
Fab 5370 (Fab, V domains shown, Fab from E. coli; also called VH32/VL32) VH: EVQLVESGGGLVQPGGSLRLSCAASGFSLSTSGVAVAWIRQAPGKGLEWLALIDWDDDKRYSTSLKSRLTISRDNSKNTLYLQLNSLRAEDTAVYYCAREGSTTVVGDWFDYWGQGTLVTVSS VL: DIQLTQSPSSLSASVGDRVTITCRASQGIGTYLAWYQQKPGKAPKLLIYDASNRATGIPSRFSGSGSGTDFTLTISSLQPEDFATYYCQQGYSLWTFGQGTKVEIKR	Y

Query: Find out if reported Kd for Fab 5299 (Fab, V domains shown, Fab from E. coli; also called VH11/VL11) VH: EVQLVESGGGLVQPGGSLRLSCAASGYSISSGHYWGWIRQAPGKGLEWLALIDWYGDKYYSTSLKSRLTISRDNSKNTLYLQLNSLRAEDTAVYYCARSDYYGSHFDYWGQGTLVTVSS VL: DIQLTQSPSSLSASVGDRVTITCRASESVDFDGFSFLAWYQQKPGKAPKLLIYDASNLETGVPSRFSGSGSGTDFTLTISSLQPEDFATYYCQQYDTLPRTFGQGTKVEIKR is less than 20 nM
Response: Y

Query: Below 20 nM on Kd? Entry Fab 5342 (Fab, V domains shown, Fab from E. coli; also called VH21/VL21) VH: EVQLVESGGGLVQPGGSLRLSCAASGFSLSTGGVAVGWIRQAPGKGLEWLALIDWAGDKSYSTSLKSRLTISRDNSKNTLYLQLNSLRAEDTAVYYCAREGEDAVTGDWFAYWGQGTLVTVSS VL: DIQLTQSPSSLSASVGDRVTITCQASQDIRTYLAWYQQKPGKAPKLLIYDASNRATGIPSRFSGSGSGTDFTLTISSLQPEDFATYYCQQGYSIWTFGQGTKVEIKR
Response: N

Query: Hello, is Kd of the following binder strictly smaller than 20 nM? Fab 5408 (Fab, V domains shown, Fab from E. coli; also called VH36/VL36) VH: EVQLVESGGGLVQPGGSLRLSCAASGYSITSGYHWSWIRQAPGKGLEWVSSISGYGDTTYYADSVKGRFTISRDNSKNTLYLQLNSLRAEDTAVYYCAREGSDTVLGDWFAYWGQGTLVTVSS VL: DIQLTQSPSSLSASVGDRVTITCQASQDIRTYLAWYQQKPGKAPKLLIYDASNLETGVPSRFSGSGSGTDFTLTISSLQPEDFATYYCQQGYSIWTFGQGTKVEIKR
Response: N

Query: For this binder, is Kd lower than 20 nM? Fab 5318 (Fab, V domains shown, Fab from E. coli; also called VH18/VL18) VH: EVQLVESGGGLVQPGGSLRLSCAASGFSLSTSGVAVGWIRQAPGKGLEWLALIDWDDDKYYSTSLKSRLTISRDNSKNTLYLQLNSLRAEDTAVYYCAREGSTAVAGDWFAYWGQGTLVTVSS VL: DIQLTQSPSSLSASVGDRVTITCQASQDIRTFLAWYQQKPGKAPKLLIYDASNRATGIPSRFSGSGSGTDFTLTISSLQPEDFATYYCQQGYSTWTFGQGTKVEIKR
Response: Y
